# assay.target: rabbit aortic rings (Oryctolagus cuniculus, UniProt P34976)
# Construct: The thoracic aorta was removed, cleaned of adherent fat and connective tissue and then cut into 3-mm ring segments; from tissue; host or cells: rabbit thoracic aorta rings, endothelium removed
# Sequence (P34976 whole entry): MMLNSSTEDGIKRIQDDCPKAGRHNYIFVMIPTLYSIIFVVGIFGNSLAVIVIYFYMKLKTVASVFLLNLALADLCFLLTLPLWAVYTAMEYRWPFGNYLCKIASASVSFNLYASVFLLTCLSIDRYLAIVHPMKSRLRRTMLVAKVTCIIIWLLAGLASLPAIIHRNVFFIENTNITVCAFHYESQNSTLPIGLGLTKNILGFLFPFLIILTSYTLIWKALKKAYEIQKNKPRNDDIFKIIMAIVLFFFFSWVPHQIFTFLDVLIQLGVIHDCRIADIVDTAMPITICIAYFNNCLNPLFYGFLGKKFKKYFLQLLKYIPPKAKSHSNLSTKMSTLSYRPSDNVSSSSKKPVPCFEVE
# procedure.summary: Assay B: In Vitro Vascular Smooth Muscle Response for AII
# Set-up: species or system rabbit (male New Zealand white)
# test.conditions: rabbit aorta rings, two rabbits per antagonist; antagonist 10^-5 M, 5 minutes; AII contraction; Schild; read-out: pA2 (second of two values) (converted)
Hi there, I'd appreciate the recorded log10(Kb) for every entry that follows.
Answers are given as log10 of Kb in nM.

Use the examples below as a reference point.
{"columns": ["molecule", "log10(Kb)"],
 "data": [
  ["CCCCn1nc(CCc2cccs2)nc1Cc1ccc(-c2ccccc2-c2nnn[nH]2)nc1", 1.31],
  ["CCCCn1nc(C(C)(F)F)nc1Cc1ccc(-c2ccccc2-c2nnn[nH]2)nc1", 1.26],
  ["CCCCn1nc(CCc2ccccc2)nc1Cc1ccc(-c2ccccc2-c2nnn[nH]2)nc1", 1.03],
  ["CCCn1nc(C(OC)OC)nc1Cc1ccc(-c2ccccc2-c2nnn[nH]2)nc1", 1.98],
  ["CCCCn1nc(C(F)F)nc1Cc1ccc(-c2ccccc2-c2nnn[nH]2)nc1", 2.25],
  ["CCCCn1nc(C(F)(F)CCC)nc1Cc1ccc(-c2ccccc2-c2nnn[nH]2)nc1", 1.23],
  ["CCCn1nc(C(F)F)nc1Cc1ccc(-c2ccccc2-c2nnn[nH]2)nc1", 2.45],
  ["CCCn1nc(C(F)(F)CC)nc1Cc1ccc(-c2ccccc2-c2nnn[nH]2)nc1", 1.89],
  ["CCCCn1nc(C2OCC(C)(C)CO2)nc1Cc1ccc(-c2ccccc2-c2nnn[nH]2)nc1", 1.88],
  ["CCCCn1nc(C(OCC)OCC)nc1Cc1ccc(-c2ccccc2-c2nnn[nH]2)nc1", 1.45]
]}

Items follow; give log10(Kb) for each.
1. CCCCn1nc(C2OCCCO2)nc1Cc1ccc(-c2ccccc2-c2nnn[nH]2)nc1
2. CCCn1nc(C(C)(F)F)nc1Cc1ccc(-c2ccccc2-c2nnn[nH]2)nc1
3. CCCCn1nc(C(=O)CCC)nc1Cc1ccc(-c2ccccc2-c2nnn[nH]2)nc1
4. CCCCn1nc(-c2ccccc2Cl)nc1Cc1ccc(-c2ccccc2-c2nnn[nH]2)nc1

1.85
1.82
1.29
0.86
